This collection of values is drawn from paper PMC6438848.

# PROTOCOL_NOTES: Determination of lipophilicity by RP UPLC
# Assay type: physicochemical
# CONDITION_NOTES: Kinetex C18, methanol 0.65-0.95 v/v, 25 °C
METRIC_NAME: log kw (capacity factor of the analyte in pure water)
Enter a number only.

Check out these entries, answers already filled in.
COMPOUND_STRUCTURE_STRING: Fc1ccc([N+]2=NN(CCCl)CC2)cc1.[Cl-]
ASSAY_RESULT: −1.873
--
COMPOUND_STRUCTURE_STRING: ClCCN1CC[N+](c2ccc(Cl)cc2)=N1.[Cl-]
ASSAY_RESULT: −3.503
--
COMPOUND_STRUCTURE_STRING: FC(F)(F)c1cccc([N+]2=NN(CCCl)CC2)c1.[Cl-]
ASSAY_RESULT: −3.373

Please find the next molecule below.
Record request: log kw (capacity factor of the analyte in pure water) value, item ClCCN1CC[N+](c2ccccc2)=N1.[Cl-]
−2.002
